target: HLA-B*40:01
testConditions: chains peptide; modification not given
reportedEndpoint: pIC50
Expect pIC50 as a plain number equal to -log10 of the molar concentration.

Please fill in: pIC50 reported for KQWFLDLPL [SEQ ID NO: 310 serotype 4] = 6.40

Data credit: patent US20180280496A1
